Target: c-Myc template DNA (c-myc quadruplex)
Experiment: Quadruplex binding / stop assay (Taq polymerase arrest, capillary electrophoresis)
Settings: read-out: Stop Data c-Myc μM; concentration at which 50% of the DNA was arrested (arrested:full-length 1:1)
measured property: IC50 (µM)

Example results:
1) CN1CCCC1CCNc1c(F)cc2c(=O)c(C(=O)NCCN3CCOCC3)cn3c2c1Oc1cc2c(cc1-3)oc1ccccc12 (stereo not shown)	1.75
2) CN1CCCC1CCNC(=O)c1cn2c3c(c(NCCN4CCOCC4)c(F)cc3c1=O)Oc1c-2ccc2ccccc12 (stereo not shown)	1.75
3) CC(C)(C)OC(=O)N[C@@H]1CCN(C(=O)c2cn3c4c(c(NCCCN5CCOCC5)c(F)cc4c2=O)Oc2cc4ccccc4cc2-3)C1	2.5
4) Nc1c(F)c(NCCCN2CCOCC2)c2c3c1c(=O)c(C(=O)N1CCC(N)C1)cn3-c1cc3ccccc3cc1O2 (stereo not shown)	1.75
5) Nc1c(F)c(N2CCC(N)C2)c2c3c1c(=O)c(C(=O)N1CCOCC1)cn3-c1cc3ccccc3cc1O2 (stereo not shown)	1.75
6) CN1CCCC1CCNC(=O)c1cn2c3c(c(NCCCN4CCOCC4)c(F)cc3c1=O)Oc1c-2ccc2ccccc12 (stereo not shown)	1.75
7) CN1CCN(CCCNC(=O)c2cn3c4cc5c(=O)c6ccccc6c(=O)c5cc4oc4c(NCCCN5CCN(C)CC5)c(F)cc(c2=O)c43)CC1	0.9
8) CN1CCCC1CCNC(=O)c1cn2c3c(c(NCC(O)CO)c(F)cc3c1=O)Oc1cc3ccccc3cc1-2 (stereo not shown)	1.75

A = Nc1ccc(CCNC(=O)c2cn3c4c(c(N5CCC(N)C5)c(F)cc4c2=O)Oc2cc4ccccc4cc2-3)cc1 (stereo not shown)
B = CN1CCCC1CCNC(=O)c1cn2c3c(c(N4CCC(N)C4)c(F)cc3c1=O)Oc1cc3c(cc1-2)Cc1ccccc1-3 (stereo not shown)
C = CN1CCCC1CCNCC(=O)N[C@@H]1CCN(c2c(F)cc3c(=O)c(C(=O)NCCCn4ccnc4)cn4c3c2Oc2cc3c(cc2-4)oc2ccccc23)C1 (stereo partly shown)
D = CN(C)CCCCNC(=O)c1cn2c3cc4c(cc3oc3c(NCCCCN(C)C)c(F)cc(c1=O)c32)c(=O)c1ccccc14
Problem: Sort low-to-high on IC50, please. # respond with the labels, arranged in the requested order
Result: D, B, C, A

----------
System: HeLa cells
Assay: MTS cell proliferation and/or cytotoxicity assay
Type: cell-based, Human
Details: Homo sapiens, HeLa, 72 h, concentration at which 50% of antiproliferative cell response is seen; 3 days incubation; read-out: MTS Data Hella
measured property: pIC50
Scale for pIC50: -log10 of concentration given in mol/L; no unit attached.

1. NC1CCN(c2c(F)cc3c(=O)c(C(=O)O)cn4c5cc6c(=O)c7ccccc7c(=O)c6cc5oc2c34)C1 (stereo not shown)	6.70

Let's switch to this compound now.
Problem: Tell me the measured pIC50 of CN(C)CCCCNC(=O)c1cn2c3cc4c(cc3oc3c(N5CC[C@H](N)C5)c(F)cc(c1=O)c32)c(=O)c1ccccc14 , please.
Result: 6.52

----------
Biological target: c-Myc template DNA (c-myc quadruplex)
Test: Quadruplex binding / stop assay (Taq polymerase arrest, capillary electrophoresis)
Conditions: read-out: Stop Data c-Myc μM; concentration at which 50% of the DNA was arrested (arrested:full-length 1:1)
measured property: IC50 (µM)

Example results:
1) CN1CCCC1CCNC(=O)c1cn2c3c(c(NC4CN5CCC4CC5)c(F)cc3c1=O)Oc1cc3ccccc3cc1-2 (stereo not shown) [compound 486]	0.5
2) CN(C)CCCCNC(=O)c1cn2c3c(c(N)c(F)c(NCCCN4CCOCC4)c3c1=O)Oc1cc3ccccc3cc1-2 [compound 192]	1.75
3) CN(C)CCCCNc1c(F)cc2c(=O)c(C(=O)NCCCn3ccnc3)cn3c2c1Oc1c-3ccc2ccccc12 [compound 142]	1.75

A = Nc1c(F)c(NCCCN2CCOCC2)c2c3c1c(=O)c(C(=O)NCCCN1CCOCC1)cn3-c1cc3ccccc3cc1O2 [compound 218]
B = CN(C)CCCCNc1c(F)cc2c(=O)c(C(=O)NCCCN3CCN(C)CC3)cn3c2c1Oc1c-3ccc2ccccc12 [compound 478]
Problem: # returns the entry with the larger IC50; inputs A and B // respond with label for picked entry
Result: A

----------
Assay: Pharmacokinetic/toxicokinetic evaluation in dogs
Assay type: in vivo, beagle dogs
Settings: male, beagle, dog, plasma, iv, 1.2 mg/kg, Dose 1, 1.2 mg/kg IV, median
measured property: Tmax (min)
Express the result in min but write the number alone.

Problem: Tell me the measured Tmax of CN1CCCC1CCNC(=O)c1cn2c3c(c(N4CCC(c5cnccn5)C4)c(F)cc3c1=O)Oc1cc3ccccc3cc1-2 (stereo not shown) , please.
Result: 40.2

----------
Molecular target: c-Myc template DNA (c-myc quadruplex)
Assay: Quadruplex binding / stop assay (Taq polymerase arrest, capillary electrophoresis)
Settings: read-out: S DATA; Table 1D, stop assay data
measured property: IC50 (nM)

Example results:
1) CN1CCCC1CCNC(=O)c1cn2c3c(c(NCC4CCNCC4)c(F)cc3c1=O)Oc1cc3ccccc3cc1-2 (stereo not shown)	1750
2) COc1ccc2[nH]cc(CCNc3c(F)cc4c(=O)c(C(=O)NCCC5CCCN5C)cn5c4c3Oc3cc4ccccc4cc3-5)c2c1 (stereo not shown)	1750

1 = CN1CCCC1CCNc1ccc2c(=O)c(C(=O)NC3CC(C)(C)NC(C)(C)C3)cn3c2c1Oc1cc2ccccc2cc1-3 (stereo not shown)
2 = CN(C)CCCCNC(=O)c1cn2c3c(c(NCCN4CCCC4)ccc3c1=O)Oc1cc3ccccc3cc1-2
Problem: # returns the entry with the larger IC50; inputs 1 and 2 // respond with label for picked entry
Result: 1

----------
Test: Pharmacokinetic/toxicokinetic evaluation in dogs
Type: in vivo, beagle dogs
Conditions: beagle, dog, plasma, female, 1.2 mg/kg IV infusion, Dose 1, read-out: Mean AUC(0-inf)
measured property: AUC(0-inf) (ng·h/mL)
Express the result in ng·h/mL but write the number alone.

Problem: Tell me the measured AUC(0-inf) of CN1CCCC1CCNC(=O)c1cn2c3c(c(N4CCC(c5cnccn5)C4)c(F)cc3c1=O)Oc1cc3ccccc3cc1-2 (stereo not shown) [CX-3543] , please.
Result: 386

----------
Target: CYP2D6 (Homo sapiens)
Sequence (P10635 whole entry): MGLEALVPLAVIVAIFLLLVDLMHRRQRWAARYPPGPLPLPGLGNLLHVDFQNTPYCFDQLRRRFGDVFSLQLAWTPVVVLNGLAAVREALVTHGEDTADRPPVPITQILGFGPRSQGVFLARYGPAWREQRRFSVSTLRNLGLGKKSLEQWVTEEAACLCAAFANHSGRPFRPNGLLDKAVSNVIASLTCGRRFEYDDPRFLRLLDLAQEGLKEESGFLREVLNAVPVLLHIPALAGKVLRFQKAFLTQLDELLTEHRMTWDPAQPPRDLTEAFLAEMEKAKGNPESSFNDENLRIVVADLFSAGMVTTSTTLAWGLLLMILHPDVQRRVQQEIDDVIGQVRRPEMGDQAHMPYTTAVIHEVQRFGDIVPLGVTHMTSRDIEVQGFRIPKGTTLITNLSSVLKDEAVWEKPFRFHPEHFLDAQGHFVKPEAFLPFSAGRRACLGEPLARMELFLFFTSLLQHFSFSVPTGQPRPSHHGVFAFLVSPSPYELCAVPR
Test: Cytochrome P450 inhibition assay
Details: isoform 2D6, substrate Dextromethorphan
pIC50: −log10 of the molar value.
measured property: pIC50

Problem: Tell me the measured pIC50 of CN1CCCC1CCNC(=O)c1cn2c3c(c(N4CCC(c5cnccn5)C4)c(F)cc3c1=O)Oc1cc3ccccc3cc1-2 (stereo not shown) [CX-3543] , please.
Result: < 4.60

----------
Molecular target: c-Myc template DNA (c-myc quadruplex)
Experiment: Quadruplex binding / stop assay (Taq polymerase arrest, capillary electrophoresis)
Details: read-out: Stop Data c-Myc μM; concentration at which 50% of the DNA was arrested (arrested:full-length 1:1)
measured property: IC50 (µM)

1) CN1CCCC1CCNc1c(F)cc2c(=O)c(C(=O)N3CC[C@H](NC(=O)OC(C)(C)C)C3)cn3c4cc5c(cc4oc1c23)c(=O)c1ccccc15 (stereo partly shown)	1.75
2) CN1CCN(CCCNc2c(F)cc3c(=O)c(C(=O)NCCC4CCCN4C)cn4c3c2Oc2cc3c(cc2-4)oc2ccccc23)CC1 (stereo not shown)	0.75

1 = CN1CCN(CCCNC(=O)c2cn3c4c(c(N5CCC(N)C5)c(F)cc4c2=O)Oc2ccccc2-3)CC1 (stereo not shown)
2 = CN1CCCC1CCNc1c(F)cc2c(=O)c(C(=O)NCCCN3CCOCC3)cn3c2c1Oc1cc2ccccc2cc1-3 (stereo not shown)
Problem: # returns the entry with the larger IC50; inputs 1 and 2 // respond with label for picked entry
Result: 2
(2: 1.75 µM, 1: 0.75 µM)

----------
Experiment: Pharmacokinetic/toxicokinetic evaluation in rats
Assay type: in vivo
Details: male, rat, plasma, iv, 7.6 mg/kg, male, Dose 5, read-out: terminal half-life (converted)
measured property: half-life (min)
Express the result in min but write the number alone.

Problem: Tell me the measured half-life of CN1CCCC1CCNC(=O)c1cn2c3c(c(N4CCC(c5cnccn5)C4)c(F)cc3c1=O)Oc1cc3ccccc3cc1-2 (stereo not shown) , please.
Result: 528

----------
Target: c-Myc template DNA (c-myc quadruplex)
Assay: Quadruplex binding / stop assay (Taq polymerase arrest, capillary electrophoresis)
Conditions: read-out: Stop Data c-Myc μM; concentration at which 50% of the DNA was arrested (arrested:full-length 1:1)
measured property: IC50 (µM)

Example results:
1) CC(C)(C)OC(=O)NC1CCN(c2c(F)c(N)c3c(=O)c(C(=O)N4CCOCC4)cn4c3c2Oc2cc3ccccc3cc2-4)C1 (stereo not shown) [compound 230]	1.75
2) CN1CCCC1CCNC(=O)c1cn2c3cc4c(cc3oc3c(NCCCN5CCOCC5)c(F)cc(c1=O)c32)c(=O)c1ccccc14 (stereo not shown) [compound 420]	0.75
3) NCCCNC(=O)c1cn2c3c(c(N4CC[C@@H](N)C4)c(F)cc3c1=O)Oc1cc3ccccc3cc1-2 [compound 485]	0.5
4) CN(C)CCCCNC(=O)c1cn2c3c(c(NCCCN4CCOCC4)c(F)cc3c1=O)Oc1cc3c(cc1-2)oc1ccccc13 [compound 145]	1.75
5) O=C(NCCN1CCCC1)c1cn2c3cc4c(cc3oc3c(N5CC6CCCNC6C5)c(F)cc(c1=O)c32)c(=O)c1ccccc14 (stereo not shown) [compound 590]	0.18

A = CC1CCCCN1CCCNC(=O)c1cn2c3c(c(N4CCC(N)C4)c(F)cc3c1=O)Oc1cc3ccccc3cc1-2 (stereo not shown) [compound 387]
B = O=C(NCCCn1ccnc1)c1cn2c3c(c(NCCN4CCCC4)c(F)cc3c1=O)Oc1c-2ccc2ccccc12 [compound 140]
Problem: Lab log: flag the item ( A or B ) with the smaller IC50 figure. // respond with label for picked entry
Result: A
